# kon per record follows
target: T1, human IGF2^1-67 (mature insulin-like growth factor 2) (human, UniProt P01344 25-91, biotinylated (site not stated) where immobilised on the chip (Tables 1-4)); assay: SPR kinetic, biotin-IGF2 on chip, pH 7.4
T1 construct: mature; also called mature IGF2; biotinylated IGF2
T1 sequence (P01344 25-91): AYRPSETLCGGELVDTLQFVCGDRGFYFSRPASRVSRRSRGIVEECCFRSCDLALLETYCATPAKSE
endpoint label: kon (M⁻¹ s⁻¹)

binder="domain 11^AB5 K1631R (receptor, See m5; HI loop mutant) MKSNEHDDCQVTNPSTGHLFDLSSLSGRAGFTAAYAKGWGVYMSICGENENCPPGVGACFGQTRISVGKANKRLRYVDQVLQLVYKDGSPCPSKSGLSYKSVISFVCRPEAGPTNRPMLISLDRQTCTLFFSWHTPLACEQATECSV" observed_result=7.18e+06
binder="IGF2R domain 11^WT (receptor, Soluble His6-tagged domain 11 from P. pastoris and/or E. coli; also called wild-type domain 11) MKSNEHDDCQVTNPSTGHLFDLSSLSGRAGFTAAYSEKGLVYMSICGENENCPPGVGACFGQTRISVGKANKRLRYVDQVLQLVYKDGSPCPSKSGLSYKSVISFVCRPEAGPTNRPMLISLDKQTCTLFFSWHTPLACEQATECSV" observed_result=5e+06
binder="domain 11^AB5 K1601R (receptor, See m5) MKSNEHDDCQVTNPSTGHLFDLSSLSGRAGFTAAYAKGWGVYMSICGENENCPPGVGACFGQTRISVGKANKRLRYVDQVLQLVYKDGSPCPSRSGLSYKSVISFVCRPEAGPTNRPMLISLDKQTCTLFFSWHTPLACEQATECSV" observed_result=5.28e+06
binder="domain 11^AB5 Q1632E (receptor, See m5; HI loop mutant) MKSNEHDDCQVTNPSTGHLFDLSSLSGRAGFTAAYAKGWGVYMSICGENENCPPGVGACFGQTRISVGKANKRLRYVDQVLQLVYKDGSPCPSKSGLSYKSVISFVCRPEAGPTNRPMLISLDKETCTLFFSWHTPLACEQATECSV" observed_result=520000
